- study_target: T1, 4H754-bH
- T1 chain: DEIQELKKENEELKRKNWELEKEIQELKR
- measurement_protocol: two-hybrid library CCNG1;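 also: natural log of median RNA to DNA barcode read ratio; higher means stronger binding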
interaction score overview
Respond using a number only.

| binder | interaction score |
| --- | --- |
| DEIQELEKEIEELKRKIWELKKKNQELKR [4H112-bH] | -0.515 |
| DEIQELKKENEELKRKNWELEKEIQELKR [4H754-bH] | 1.36 |
| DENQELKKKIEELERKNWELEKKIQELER [4H1845-bH] | 0.391 |

Now for a further binder.
Query block: Give its interaction score value. Item: DKIQELKKENEELEREIWELKKKIQELKR [4H2702-bH]
Result block: -0.588
